Numbers sourced from patent US8247211B2.

So I've got a bunch of compounds here, and I need their MIC Staphylococcus aureus (GC 4544) values.
tested on: Staphylococcus sp.; assay: In vitro antibacterial evaluation: minimum inhibitory concentration (MIC), broth dilution method; type: cell-based; conditions: strain GC 4544; broth dilution, 18 hours at 35° C.
Answers are plain numbers, in µg/mL.

Take a look at these entries with their results.
COMPOUND	MIC Staphylococcus aureus (GC 4544) [µg/mL]
CC(c1ccccc1)C1NC(=O)CNC(=O)C(CO)NC(=O)C(C(O)C2CN(Cc3ccc(-c4ccccc4)cc3)C(=N)N2C2OC(CO)C(O)C(O)C2O)NC(=O)C(C(O)C2CNC(=NCc3ccc(-c4ccccc4)cc3)N2Cc2ccc(-c3ccccc3)cc2)NC(=O)C(Cc2ccc(OC3OC(CO)C(OC4OC(CO)C(O)C(O)C4O)C(O)C3O)cc2)NC1=O (stereo not shown) [Example 66]	8
CSc1ccc(C2OCC3OC(OC4C(CO)OC(Oc5ccc(CC6NC(=O)C(C(C)c7ccccc7)NC(=O)CNC(=O)C(CO)NC(=O)C(C(O)C7CNC(=N)N7C7OC(CO)C(O)C(O)C7O)NC(=O)C(C(O)C7CNC(=N)N7)NC6=O)cc5)C(O)C4O)C(O)C(O)C3O2)cc1 (stereo not shown) [Example 144]	4
CC(c1ccccc1)C1NC(=O)CNC(=O)C(CO)NC(=O)C(C(O)C2CNC(=N)N2C2OC(CO)C(O)C(O)C2O)NC(=O)C(C(O)C2CNC(=N)N2)NC(=O)C(Cc2ccc(OC3OC(CO)C(OC4OC(CO)C(O)C5OC(c6ccc(-c7ccsc7)cc6)OC45)C(O)C3O)cc2)NC1=O (stereo not shown) [Example 164a]	8

Next compound, please.
[in] // returns reported MIC Staphylococcus aureus (GC 4544) for input CC(c1ccccc1)C1NC(=O)CNC(=O)C(CO)NC(=O)C(C(O)C2CNC(=N)N2C2OC(CO)C(O)C(O)C2O)NC(=O)C(C(O)C2CNC(=N)N2)NC(=O)C(Cc2ccc(OC3OC(CO)C(OC4OC5COC(CC(C)(C)C)OC5C(O)C4O)C(O)C3O)cc2)NC1=O (stereo not shown) [Example 110]
[out] 2

###

test system: Enterococcus sp.; assay: In vitro antibacterial evaluation: minimum inhibitory concentration (MIC), broth dilution method; assay type: cell-based; conditions: broth dilution, inoculum 5×10^5 CFU/mL, 18 hours at 35° C.
MEASURED PARAMETER: MIC Enterococcus faecalis (GC 2242)

Take a look at these entries with their results.
MOLECULE	MIC Enterococcus faecalis (GC 2242)
COc1ccc2cc(COC3C(CO)OC(OC4C(CO)OC(Oc5ccc(CC6NC(=O)C(C(C)c7ccccc7)NC(=O)CNC(=O)C(CO)NC(=O)C(C(O)C7CNC(=N)N7C7OC(CO)C(O)C(O)C7O)NC(=O)C(C(O)C7CNC(=N)N7)NC6=O)cc5)C(O)C4O)C(O)C3O)ccc2c1 (stereo not shown) [Example 230a]	2 to 4 mg/L
CC(C1CCCCC1)C1NC(=O)CNC(=O)C(CO)NC(=O)C(C(O)C2CNC(=N)N2C2OC(CO)C(O)C(O)C2O)NC(=O)C(C(O)C2CNC(=N)N2)NC(=O)C(Cc2ccc(OC3OC(CO)C(OC4OC5COC(c6ccccc6)OC5C(O)C4O)C(O)C3O)cc2)NC1=O (stereo not shown)	1 mg/L
CCCOc1ccc(COCC2OC(OC3C(CO)OC(Oc4ccc(CC5NC(=O)C(C(C)c6ccccc6)NC(=O)CNC(=O)C(CO)NC(=O)C(C(O)C6CNC(=N)N6C6OC(CO)C(O)C(O)C6O)NC(=O)C(C(O)C6CNC(=N)N6)NC5=O)cc4)C(O)C3O)C(O)C(O)C2O)cc1 (stereo not shown)	4 mg/L

List MIC Enterococcus faecalis (GC 2242) for every entry below, keeping the order given.
1. CCCCN1CC(C(O)C2NC(=O)C(C(O)C3CNC(=N)N3)NC(=O)C(Cc3ccc(OC4OC(CO)C(OC5OC6COC7(OC6C(O)C5O)C5CC6CC(C5)CC7C6)C(O)C4O)cc3)NC(=O)C(C(C)c3ccccc3)NC(=O)CNC(=O)C(CO)NC2=O)N(C2OC(CO)C(O)C(O)C2O)C1=N (stereo not shown)
2. CC(c1ccccc1)C1NC(=O)CNC(=O)C(CO)NC(=O)C(C(O)C2CNC(=N)N2C2OC(CO)C(O)C(O)C2O)NC(=O)C(C(O)C2CNC(=N)N2)NC(=O)C(Cc2ccc(OC3OC(CO)C(OC4OC(CO)C(O)C(OCc5ccc(OCc6ccccc6)cc5)C4O)C(O)C3O)cc2)NC1=O (stereo not shown) [Example 231c]
3. CC(c1ccccc1)C1NC(=O)CNC(=O)C(CO)NC(=O)C(C(O)C2CNC(=N)N2C2OC(CO)C(O)C(O)C2O)NC(=O)C(C(O)C2CNC(=N)N2)NC(=O)C(Cc2ccc(OC3OC(CO)C(OC4OC5COC(c6ccc(C=Cc7ccccc7)cc6)OC5C(O)C4O)C(O)C3O)cc2)NC1=O (stereo not shown)
4. COc1ccc2cc(C3OCC4OC(OC5C(CO)OC(Oc6ccc(CC7NC(=O)C(C(C)c8ccccc8)NC(=O)CNC(=O)C(CO)NC(=O)C(CC8CNC(=N)N8C8OC(CO)C(O)C(O)C8O)NC(=O)C(CC8CNC(=N)N8)NC7=O)cc6)C(O)C5O)C(O)C(O)C4O3)ccc2c1 (stereo not shown)

[out]
4 mg/L
4 mg/L
4 mg/L
32 mg/L
